- measured_target: T1, human MSLN-hFc protein (Acro, Cat. No. MSN-H5253) (human, UniProt Q13421 296-580)
- T1 construct: the method names the coated protein as human MSLN-hFc (Acro); also called human MSLN full-length protein
- T1 sequence (Q13421 other isoform, or with tags, fused parts or gaps limits assumed): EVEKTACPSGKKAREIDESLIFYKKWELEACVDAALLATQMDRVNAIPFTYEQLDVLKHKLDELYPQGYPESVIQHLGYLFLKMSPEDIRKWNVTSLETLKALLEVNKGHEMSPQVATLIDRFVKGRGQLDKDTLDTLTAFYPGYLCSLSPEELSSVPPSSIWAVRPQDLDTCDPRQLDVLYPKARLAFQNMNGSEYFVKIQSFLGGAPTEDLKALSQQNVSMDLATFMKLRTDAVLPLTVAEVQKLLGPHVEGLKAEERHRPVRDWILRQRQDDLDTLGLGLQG
- measurement_description: ELISA on coated antigen, antibody 1 nM
reported_metric: OD450 (OD450)
Hi! Could you send only the number? It should be in OD450, unit omitted.

Answer with the recorded OD450 of F7.44.20-H5 (scFv, not shown: small tags and cut ends, also called S009-F7.44.20 humanized antibody VH1a + VL1) scFv: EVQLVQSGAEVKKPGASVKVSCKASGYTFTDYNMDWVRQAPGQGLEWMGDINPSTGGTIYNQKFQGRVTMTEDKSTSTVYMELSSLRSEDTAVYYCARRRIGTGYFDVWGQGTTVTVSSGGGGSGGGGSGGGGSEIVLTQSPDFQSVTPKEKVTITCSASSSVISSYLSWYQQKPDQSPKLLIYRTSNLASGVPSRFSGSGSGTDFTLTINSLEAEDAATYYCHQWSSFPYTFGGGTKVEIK only.
1.3

Others:
Query OD450 for F7.44.20-H1 (scFv, not shown: small tags and cut ends, also called S009-F7.44.20 humanized antibody VH1 + VL1) scFv: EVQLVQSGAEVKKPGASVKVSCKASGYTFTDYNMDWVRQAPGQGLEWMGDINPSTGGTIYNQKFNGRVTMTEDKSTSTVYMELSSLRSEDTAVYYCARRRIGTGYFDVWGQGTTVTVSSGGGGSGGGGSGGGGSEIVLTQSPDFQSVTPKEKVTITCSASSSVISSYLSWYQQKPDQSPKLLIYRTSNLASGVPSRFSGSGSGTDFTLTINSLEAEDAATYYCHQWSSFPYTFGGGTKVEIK
1.46
